Task for the reader: assign each of the following compounds its reported residual activity.
measured_on: GSK3B (human) (UniProt P49841)
Sequence (P49841 whole entry, looked up): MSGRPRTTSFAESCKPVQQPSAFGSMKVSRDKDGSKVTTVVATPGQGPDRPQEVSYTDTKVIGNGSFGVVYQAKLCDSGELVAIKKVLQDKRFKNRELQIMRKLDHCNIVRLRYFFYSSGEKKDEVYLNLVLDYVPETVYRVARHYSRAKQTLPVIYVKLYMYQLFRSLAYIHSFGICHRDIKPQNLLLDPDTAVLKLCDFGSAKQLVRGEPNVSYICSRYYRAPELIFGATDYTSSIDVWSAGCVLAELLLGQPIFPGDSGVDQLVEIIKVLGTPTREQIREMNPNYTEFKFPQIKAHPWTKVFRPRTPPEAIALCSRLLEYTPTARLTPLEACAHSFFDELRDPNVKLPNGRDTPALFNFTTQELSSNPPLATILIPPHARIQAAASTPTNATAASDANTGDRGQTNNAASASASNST
measurement_description: radiometric filter-binding kinase assay
test_settings: compound 10.0 µM
The reply should be a number in %, with the unit left off.

# residual activity (compound: "Cc1ccc(Sc2cnc(Nc3cccc(Br)n3)s2)cc1C(=O)N1CCN(C(=O)CN)CC1" ) is 37

# residual activity (compound: "C=CC(=O)N1CCC[C@@H](n2nc(-c3ccc(Oc4ccccc4)cc3)c3c(N)ncnc32)C1" ) is 75

# residual activity (compound: "O=C(O)c1ccc(-c2c[nH]c3ncc(-c4ccccc4)cc23)cc1C1CCCC1" ) is 23

# residual activity (compound: "O=c1c(O)c(-c2ccc(O)c(O)c2)oc2cc(O)c(O)c(O)c12" ) is 19

# residual activity (compound: "Cc1ccc(=O)n(-c2ccccc2)c1" ) is 99

# residual activity (compound: "N#Cc1c(O)c2c(-c3ccc(-c4ccccc4O)cc3)csc2[nH]c1=O" ) is 80

# residual activity (compound: "CCCC(CCC)C(=O)O" ) is 79

# residual activity (compound: "NC1(c2ccc(-c3nc4ccn5c(=O)[nH]nc5c4cc3-c3ccccc3)cc2)CCC1" ) is 72

# residual activity (compound: "CCNc1nc(Nc2cc(F)c(C(=O)N3CCOCC3)cc2OC)ncc1C(F)(F)F" ) is 83

# residual activity (compound: "NS(=O)(=O)OC[C@@H]1C[C@@H](n2ccc3c(N[C@H]4CCc5ccccc54)ncnc32)C[C@@H]1O" ) is 98

====

measured_on: MAPKAPK3 (human) (UniProt Q16644)
Sequence (Q16644 whole entry, looked up): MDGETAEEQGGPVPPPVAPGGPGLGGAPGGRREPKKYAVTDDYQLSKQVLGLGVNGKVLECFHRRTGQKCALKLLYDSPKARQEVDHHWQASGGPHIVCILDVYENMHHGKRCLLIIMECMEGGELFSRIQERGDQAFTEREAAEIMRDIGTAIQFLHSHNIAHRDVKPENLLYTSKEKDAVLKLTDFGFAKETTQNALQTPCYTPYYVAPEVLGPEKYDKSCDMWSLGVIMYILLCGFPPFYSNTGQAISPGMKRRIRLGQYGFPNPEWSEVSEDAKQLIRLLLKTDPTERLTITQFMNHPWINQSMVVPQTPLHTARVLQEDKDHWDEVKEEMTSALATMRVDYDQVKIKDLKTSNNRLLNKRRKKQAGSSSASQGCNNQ
measurement_description: radiometric filter-binding kinase assay
test_settings: compound 1.0 µM
property: residual activity

# residual activity (molecule: "Cc1cccc(Nc2nn(C)c3ncnc(N)c23)c1" ) is 91%

# residual activity (molecule: "Cc1ccc(=O)n(-c2ccccc2)c1" ) is 92%

# residual activity (molecule: "CC(C)(C#N)c1ccc(N2C(=O)OCc3cnc4ccc(-c5cnc6ccccc6c5)cc4c32)cc1" ) is 88%

====

measured_on: MAP2K2 (human) (UniProt P36507)
Sequence (P36507 whole entry, looked up): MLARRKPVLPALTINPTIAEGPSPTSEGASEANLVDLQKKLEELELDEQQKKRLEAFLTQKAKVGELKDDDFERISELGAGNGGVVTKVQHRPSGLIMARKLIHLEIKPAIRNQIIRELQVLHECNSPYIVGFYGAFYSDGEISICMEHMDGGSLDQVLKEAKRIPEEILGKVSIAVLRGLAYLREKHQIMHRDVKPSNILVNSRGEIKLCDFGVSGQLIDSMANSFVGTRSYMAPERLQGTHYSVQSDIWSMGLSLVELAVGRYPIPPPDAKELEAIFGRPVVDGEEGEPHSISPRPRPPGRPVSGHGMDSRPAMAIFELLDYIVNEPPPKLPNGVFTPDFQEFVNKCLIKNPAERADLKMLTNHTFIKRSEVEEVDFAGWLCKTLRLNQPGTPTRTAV
measurement_description: radiometric filter-binding kinase assay
test_settings: compound 10.0 µM
property: residual activity (%)
The reply should be a number in %, with the unit left off.

# residual activity (compound: "FC(F)(F)c1ccc(-c2ccc(Oc3cncc4sc(-c5nn[nH]n5)cc34)cc2)cc1" ) is 70

# residual activity (compound: "O=C(Nc1ccccc1-c1cn2c(CN3CCNCC3)csc2n1)c1cnc2ccccc2n1" ) is 90

# residual activity (compound: "CCNc1nc(Nc2cc(F)c(C(=O)N3CCOCC3)cc2OC)ncc1C(F)(F)F" ) is 90

# residual activity (compound: "Oc1ccc(/C=C/c2cc(O)cc(O)c2)cc1" ) is 91

====

Test system: PRKAA1 or PRKAA2 (rat)
measurement_description: radiometric filter-binding kinase assay
test_settings: compound 1.0 µM; accession and sequence are those of the human protein
property: residual activity (%)
The reply should be a number in %, with the unit left off.

# residual activity (compound: "CNc1nc(-c2ccc3c(N)n[nH]c3c2)cc(N2C[C@@H](C(=O)NC3CCCCC3)CC[C@H]2C)n1" ) is 91

# residual activity (compound: "COc1cc(O)c2c(c1)/C=C/C[C@H](O)[C@H](O)C(=O)/C=C\C[C@H](C)OC2=O" ) is 92

# residual activity (compound: "O=C(Nc1ccccc1-c1cn2c(CN3CCNCC3)csc2n1)c1cnc2ccccc2n1" ) is 88
